B1: Osa-1-4 twister ribozyme (parent)
chain: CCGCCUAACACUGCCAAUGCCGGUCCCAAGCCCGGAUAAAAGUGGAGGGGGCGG

# Variants of: B1
# Test: self-cleavage, relative activity (ratio to wild type); higher = more cleavage; co-transcriptional
Entries and their measured self-cleavage follow.

G23U G50U :: 0.06
A7U G23A :: 0.06
A41G C27U :: 0.09
G48C U24A :: 0.04
A17G A38U :: 0.97

Looking for the measured self-cleavage of A28G C27U , can you help?
0.07

Looking for the measured self-cleavage of A41G G48C , can you help?
0.08

Looking for the measured self-cleavage of C33A G35A , can you help?
0.07

Looking for the measured self-cleavage of A38C G35A , can you help?
0.84

Looking for the measured self-cleavage of A36C C31U , can you help?
0.1

Looking for the measured self-cleavage of C25U G53U , can you help?
0.11

Looking for the measured self-cleavage of A7C G19C , can you help?
0.02

Looking for the measured self-cleavage of A28C G44C , can you help?
0.95
